TESTED_TARGET: UniProtKB P11229
Sequence (P11229 whole entry): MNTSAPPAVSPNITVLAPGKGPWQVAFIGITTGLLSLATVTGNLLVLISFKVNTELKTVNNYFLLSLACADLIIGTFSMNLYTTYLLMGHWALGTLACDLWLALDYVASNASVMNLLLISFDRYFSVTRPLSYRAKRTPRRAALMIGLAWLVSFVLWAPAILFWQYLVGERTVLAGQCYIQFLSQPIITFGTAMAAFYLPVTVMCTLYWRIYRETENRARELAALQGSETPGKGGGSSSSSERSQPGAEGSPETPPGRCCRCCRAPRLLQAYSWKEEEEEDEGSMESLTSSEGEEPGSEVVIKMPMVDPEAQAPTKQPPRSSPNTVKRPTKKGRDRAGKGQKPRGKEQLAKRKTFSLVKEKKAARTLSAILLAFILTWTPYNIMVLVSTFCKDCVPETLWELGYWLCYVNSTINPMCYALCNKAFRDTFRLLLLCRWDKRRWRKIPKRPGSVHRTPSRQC
Please respond with reported Kd for every item in the list.
Numeric only. Scale: pM

Field: Kd (UniProtKB P11229). Entry: `N/C(=N\C(=O)NCc1ccccc1)NCCCc1nnc(N)s1`
170

Field: Kd (UniProtKB P11229). Entry: `CCCCCNC(=O)/N=C(\N)NCCCc1nnc(N)s1.O=C(O)C(F)(F)F.O=C(O)C(F)(F)F`
170

Field: Kd (UniProtKB P11229). Entry: `C[C@@H](NC(=O)/N=C(\N)NCCCc1ncn[nH]1)c1ccccc1`
170

---

Please respond with reported pKi for every item in the list.
TESTED_TARGET: Beta-2 adrenergic receptor (Homo sapiens, UniProt P07550)
Sequence (P07550 whole entry): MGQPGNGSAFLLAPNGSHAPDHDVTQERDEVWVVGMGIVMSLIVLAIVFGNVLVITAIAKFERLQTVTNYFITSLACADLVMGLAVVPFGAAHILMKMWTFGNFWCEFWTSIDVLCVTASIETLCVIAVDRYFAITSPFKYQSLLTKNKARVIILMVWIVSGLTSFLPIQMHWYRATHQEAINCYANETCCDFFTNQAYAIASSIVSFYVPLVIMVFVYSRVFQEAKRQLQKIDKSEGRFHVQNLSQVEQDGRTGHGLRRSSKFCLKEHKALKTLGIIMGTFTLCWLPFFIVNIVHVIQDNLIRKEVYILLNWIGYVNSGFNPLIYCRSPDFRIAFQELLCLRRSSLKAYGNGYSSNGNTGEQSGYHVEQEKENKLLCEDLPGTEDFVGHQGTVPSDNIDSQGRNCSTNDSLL
RUN_DESCRIPTION: Displacement of [3H]CGP12177 from human beta-2 adrenergic receptor […] in HEK293T cell membrane incubated for 2 hrs by scintillation counting analysis
Type: cell membranes
Enter the number alone.

Recorded pKi of `CCCCCNC(=O)/N=C(\N)NCCCc1nnc(N)s1.O=C(O)C(F)(F)F.O=C(O)C(F)(F)F` , please.
4.2

Recorded pKi of `N/C(=N\C(=O)NCc1ccccc1)NCCCc1nnc(N)s1` , please.
4.4

Recorded pKi of `C[C@@H](NC(=O)/N=C(\N)NCCCc1ncn[nH]1)c1ccccc1` , please.
4.45

Recorded pKi of `CCCCCNC(=O)/N=C(\N)NCCCc1sc(N)nc1C` , please.
4.93

---

TESTED_TARGET: Alpha-1A adrenergic receptor (Homo sapiens, UniProt P35348)
Please respond with reported pKd for every item in the list.
Remember the convention: pKd equals -log10 of concentration in molar.

Recorded pKd of `CCCCCNC(=O)/N=C(\N)NCCCc1nnc(N)s1.O=C(O)C(F)(F)F.O=C(O)C(F)(F)F` , please.
9.60

Recorded pKd of `C[C@@H](NC(=O)/N=C(\N)NCCCc1ncn[nH]1)c1ccccc1` , please.
9.60

Recorded pKd of `CCCCCNC(=O)/N=C(\N)NCCCc1sc(N)nc1C` , please.
9.60

---

TESTED_TARGET: Alpha-1A adrenergic receptor (Homo sapiens)
Sequence (P35348 whole entry): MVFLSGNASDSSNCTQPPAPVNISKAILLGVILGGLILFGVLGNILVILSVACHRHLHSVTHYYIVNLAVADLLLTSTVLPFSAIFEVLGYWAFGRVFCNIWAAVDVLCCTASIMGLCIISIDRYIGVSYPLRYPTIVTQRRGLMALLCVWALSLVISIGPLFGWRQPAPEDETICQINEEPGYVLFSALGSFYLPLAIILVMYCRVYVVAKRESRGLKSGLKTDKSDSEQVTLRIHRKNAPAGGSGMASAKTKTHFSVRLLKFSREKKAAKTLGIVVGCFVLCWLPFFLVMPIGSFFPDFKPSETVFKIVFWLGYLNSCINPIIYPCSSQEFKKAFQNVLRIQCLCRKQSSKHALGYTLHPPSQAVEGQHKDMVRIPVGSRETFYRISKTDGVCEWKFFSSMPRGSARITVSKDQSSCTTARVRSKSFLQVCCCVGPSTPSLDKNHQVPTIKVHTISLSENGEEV
RUN_DESCRIPTION: Displacement of [3H]prazosin from human alpha-1A adrenergic receptor stably expressed in HEK293T cell membrane incubated for 2 hrs by scintillation counting analysis
Format: cell membranes
TEST_READOUT: pKi
Enter the number alone.

Recorded pKi of `CCCCCNC(=O)/N=C(\N)NCCCc1sc(N)nc1C` , please.
5.69

Recorded pKi of `CCCCCNC(=O)/N=C(\N)NCCCc1nnc(N)s1.O=C(O)C(F)(F)F.O=C(O)C(F)(F)F` , please.
5.45

Recorded pKi of `C[C@@H](NC(=O)/N=C(\N)NCCCc1ncn[nH]1)c1ccccc1` , please.
5.72

Recorded pKi of `N/C(=N\C(=O)NCc1ccccc1)NCCCc1nnc(N)s1` , please.
6.07

---

TESTED_TARGET: UniProtKB P21918
Sequence (P21918 whole entry): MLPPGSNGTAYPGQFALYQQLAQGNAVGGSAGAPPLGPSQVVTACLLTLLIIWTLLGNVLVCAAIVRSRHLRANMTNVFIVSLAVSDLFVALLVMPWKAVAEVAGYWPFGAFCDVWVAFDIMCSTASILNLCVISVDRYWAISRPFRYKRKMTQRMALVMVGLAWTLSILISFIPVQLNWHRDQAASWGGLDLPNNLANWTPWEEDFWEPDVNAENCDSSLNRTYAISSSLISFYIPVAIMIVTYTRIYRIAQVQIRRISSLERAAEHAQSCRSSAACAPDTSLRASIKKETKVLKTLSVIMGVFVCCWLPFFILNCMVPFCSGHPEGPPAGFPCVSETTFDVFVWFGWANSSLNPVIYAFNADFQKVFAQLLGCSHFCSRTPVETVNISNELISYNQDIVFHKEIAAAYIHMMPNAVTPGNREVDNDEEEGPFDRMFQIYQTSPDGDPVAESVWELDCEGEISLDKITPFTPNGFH
RUN_DESCRIPTION: Displacement of [3H]SCH23390 from human D5 receptor stably expressed in HEK293T cells co-expressing luciferase and CEK incubated for 60 mins by scintillation counting analysis
Assay type: cell-based
Please respond with reported pKi for every item in the list.
Enter the number alone.

Field: pKi (UniProtKB P21918). Entry: `CCCCCNC(=O)/N=C(\N)NCCCc1sc(N)nc1C`
5.4

Field: pKi (UniProtKB P21918). Entry: `N/C(=N\C(=O)NCc1ccccc1)NCCCc1nnc(N)s1`
4.95

Field: pKi (UniProtKB P21918). Entry: `C[C@@H](NC(=O)/N=C(\N)NCCCc1ncn[nH]1)c1ccccc1`
4.62

Field: pKi (UniProtKB P21918). Entry: `CCCCCNC(=O)/N=C(\N)NCCCc1nnc(N)s1.O=C(O)C(F)(F)F.O=C(O)C(F)(F)F`
4.46

---

TESTED_TARGET: Muscarinic acetylcholine receptor M1 (Homo sapiens, UniProt P11229)
Sequence (P11229 whole entry): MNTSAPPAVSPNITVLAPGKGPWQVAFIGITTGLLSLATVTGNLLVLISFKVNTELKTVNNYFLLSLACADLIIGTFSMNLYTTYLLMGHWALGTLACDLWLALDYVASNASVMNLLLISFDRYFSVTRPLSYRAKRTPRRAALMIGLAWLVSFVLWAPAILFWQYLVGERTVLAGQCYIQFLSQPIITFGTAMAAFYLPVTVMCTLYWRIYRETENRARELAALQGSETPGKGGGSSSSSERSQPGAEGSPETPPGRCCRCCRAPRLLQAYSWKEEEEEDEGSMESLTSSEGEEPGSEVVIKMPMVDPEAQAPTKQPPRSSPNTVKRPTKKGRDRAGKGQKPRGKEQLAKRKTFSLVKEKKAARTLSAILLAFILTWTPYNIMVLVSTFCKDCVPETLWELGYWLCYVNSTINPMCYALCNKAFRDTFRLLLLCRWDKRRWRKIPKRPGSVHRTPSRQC
RUN_DESCRIPTION: Displacement of [3H]N-methylscopolamine from human muscarinic acetylcholine M1 receptor stably expressed in CHO cells by radioligand competition binding based analysis
Type: cell-based
Please respond with reported pKi for every item in the list.

Recorded pKi of `N/C(=N\C(=O)NCc1ccccc1)NCCCc1nnc(N)s1` , please.
< 5

Recorded pKi of `CCCCCNC(=O)/N=C(\N)NCCCc1nnc(N)s1.O=C(O)C(F)(F)F.O=C(O)C(F)(F)F` , please.
< 5

Recorded pKi of `CCCCCNC(=O)/N=C(\N)NCCCc1sc(N)nc1C` , please.
< 5

Recorded pKi of `C[C@@H](NC(=O)/N=C(\N)NCCCc1ncn[nH]1)c1ccccc1` , please.
< 5

---

Measured Ki on Histamine H1 receptor (Homo sapiens, UniProt P35367) follows.
Sequence (P35367 whole entry): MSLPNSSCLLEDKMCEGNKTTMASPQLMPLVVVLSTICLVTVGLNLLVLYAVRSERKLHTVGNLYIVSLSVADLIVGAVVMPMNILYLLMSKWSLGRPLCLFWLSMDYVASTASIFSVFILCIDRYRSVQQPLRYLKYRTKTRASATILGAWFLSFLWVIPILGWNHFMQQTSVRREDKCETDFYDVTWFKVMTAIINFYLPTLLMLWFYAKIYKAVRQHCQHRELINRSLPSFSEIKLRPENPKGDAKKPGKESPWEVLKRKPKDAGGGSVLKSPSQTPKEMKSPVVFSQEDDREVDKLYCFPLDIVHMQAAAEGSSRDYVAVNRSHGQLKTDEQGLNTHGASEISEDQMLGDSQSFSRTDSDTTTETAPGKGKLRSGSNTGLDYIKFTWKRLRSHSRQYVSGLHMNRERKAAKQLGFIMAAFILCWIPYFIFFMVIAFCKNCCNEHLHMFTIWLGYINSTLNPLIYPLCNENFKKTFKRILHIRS
Numeric only. Scale: µM

Recorded Ki of Cc1nc(N)sc1-c1cccc(N/C(N)=N/C(=O)NCC(C)CCCc2ccccc2)c1 (stereo unspecified) , please.
13.2

Recorded Ki of `N/C(=N\C(=O)NCc1ccccc1)NCCCc1nnc(N)s1` , please.
5.37

Recorded Ki of Cc1ccc(CC(C)CNC(=O)/N=C(\N)NCCCc2nnc(N)s2)cc1.O=C(O)C(F)(F)F.O=C(O)C(F)(F)F (stereo unspecified) , please.
1.35

Recorded Ki of `Cc1nnc(CCCN/C(N)=N/C(=O)NCCCCCCCCN)s1` , please.
0.309

Recorded Ki of Cc1nc(N)sc1-c1ccc(N/C(N)=N/C(=O)NCC(C)C2CCCCC2)cc1 (stereo unspecified) , please.
2.88

Recorded Ki of CC(CNC(=O)/N=C(\N)NCCCc1nnc(N)s1)C1CCCCC1 (stereo unspecified) , please.
7.41

Recorded Ki of Cc1nnc(CCCN/C(N)=N/C(=O)NCC(C)C2CCCCC2)s1 (stereo unspecified) , please.
7.08

Recorded Ki of Cc1ccc(CC(C)CNC(=O)/N=C(\N)Nc2ccc(-c3sc(N)nc3C)cc2)cc1 (stereo unspecified) , please.
1.82

Recorded Ki of CC(CCCc1ccccc1)CNC(=O)/N=C(\N)NCC1CCc2nc(N)sc2C1 (stereo unspecified) , please.
3.89

Recorded Ki of Cc1nc(N)oc1CCCN/C(N)=N/C(=O)NCC(C)C1CCCCC1.O=C(O)C(F)(F)F.O=C(O)C(F)(F)F (stereo unspecified) , please.
6.03

Recorded Ki of `Cc1nc(N)sc1-c1ccc(N/C(N)=N/C(=O)NCCCCCCNC(=O)/N=C(\N)Nc2ccc(-c3sc(N)nc3C)cc2)cc1` , please.
2.14

Recorded Ki of Cc1ccc(CC(C)CNC(=O)/N=C(\N)NCCCc2cnc(N)s2)cc1 (stereo unspecified) , please.
2.51

Recorded Ki of `NCCCCCCCCNC(=O)/N=C(\N)NCCCc1nnc(N)s1` , please.
0.525

Recorded Ki of N/C(=N\C(=O)NCc1ccccc1)NCC1CCc2nc(N)sc2C1 (stereo unspecified) , please.
3.89

Recorded Ki of `Cc1nc(N)sc1-c1ccc(N/C(N)=N/C(=O)NCc2ccccc2)cc1` , please.
1.29

Recorded Ki of `CCCCCNC(=O)/N=C(\N)NCCCc1cnc(N)s1.O=C(O)C(F)(F)F.O=C(O)C(F)(F)F` , please.
9.55

Recorded Ki of `CCCCCCNC(=O)/N=C(\N)NCCCc1nnc(N)o1.O=C(O)C(F)(F)F.O=C(O)C(F)(F)F` , please.
8.91

Recorded Ki of `CCCCCNC(=O)/N=C(\N)Nc1cccc(-c2sc(N)nc2C)c1.O=C(O)C(F)(F)F.O=C(O)C(F)(F)F` , please.
6.61

Recorded Ki of Cc1nc(N)sc1-c1ccc(N/C(N)=N/C(=O)NCC(C)CCCc2ccccc2)cc1 (stereo unspecified) , please.
7.59

Recorded Ki of CCCCCNC(=O)/N=C(\N)NCC1CCc2nc(N)sc2C1.O=C(O)C(F)(F)F.O=C(O)C(F)(F)F (stereo unspecified) , please.
5.25

// data source = ChEMBL document CHEMBL5149991
